Tested on: blood platelet aggregation
Test: Inhibition of blood platelet aggregation in vitro (adenosine diphosphate-induced, Born's method)
Type: cell-based, Japanese white rabbit
Settings: Oryctolagus cuniculus, rabbit PRP/PPP mixture, ADP 5μM
Property: IC50; scope: individual molecules

Look over these answered cases.
Q) Determine its reported IC50: COC(=O)CCCC(=O)CC[C@H]1C(=O)C[C@@H](O)[C@@H]1/C=C/[C@@H](O)COc1ccc(Cl)cc1 [Ex. 11]
A) > 10 µg/mL

Q) Determine its reported IC50: COC(=O)CCC(=O)CCC[C@H]1C(=O)C[C@@H](O)[C@@H]1/C=C/[C@@H](O)COc1ccccc1 [Ex. 30]
A) > 10 µg/mL

Q) Determine its reported IC50: CCCC[C@H](C)C[C@H](O)/C=C/[C@H]1[C@H](O)CC(=O)[C@@H]1CC(=O)CCCCC(=O)OC [Control, reference compound]
A) 0.0019 µg/mL

New cases:
Q) Determine its reported IC50: COC(=O)CCCC(=O)CC[C@H]1C(=O)C[C@@H](O)[C@@H]1/C=C/[C@@H](O)COc1ccccc1 [Ex. 1]
A) > 10 µg/mL

Q) Determine its reported IC50: CCCCC(C)(C)[C@H](O)/C=C/[C@H]1[C@H](O)CC(=O)[C@@H]1CCCC(=O)CCC(=O)OC [Ex. 31]
A) > 10 µg/mL
